Experiment: Pharmacokinetic experiment in SD rats after oral administration
Format: in vivo
Settings: male, Sprague-Dawley (SD), rat, po, 5 mg/kg, plasma, read-out: Mean residence time MRT
REPORTED_METRIC: MRT (h)

Examples with their reported MRT follow.
smiles_str=C=CC(=O)N1CC[C@H](n2nc(C#Cc3ccc4c(c3)ncn4C3CC3)c3c(N)ncc(C(=O)C4CC4)c32)C1 reported_metric=MRT test_result=2.99
smiles_str=C=CC(=O)N1CC[C@H](n2nc(C#Cc3cc4ncn(C5CC5)c4cc3F)c3c(N)ncc(C(=O)CC)c32)C1 reported_metric=MRT test_result=4.2
smiles_str=C=CC(=O)N1CC[C@H](n2nc(C#Cc3cc4ncn(C5CC5)c4cc3Cl)c3c(N)ncc(C(=O)CC)c32)C1 reported_metric=MRT test_result=4.59
smiles_str=C=CC(=O)N1CC[C@H](n2nc(C#Cc3ccc4cn(CC)nc4c3)c3c(N)ncc(C(C)=O)c32)C1 reported_metric=MRT test_result=2.39
smiles_str=C=CC(=O)N1CC[C@H](n2nc(C#Cc3ccc4cn(C)nc4c3)c3c(N)ncc(C(C)=O)c32)C1 reported_metric=MRT test_result=3.05
smiles_str=C=CC(=O)N1CC[C@H](n2nc(C#Cc3ccc4c(c3)ncn4C)c3c(N)ncc(C(=O)CC)c32)C1 reported_metric=MRT test_result=2.58
smiles_str=C=CC(=O)N1CC[C@H](n2nc(C#Cc3ccc4ccnn4c3)c3c(N)ncc(C(=O)CC)c32)C1 reported_metric=MRT test_result=2.26
smiles_str=C=CC(=O)N1CC[C@H](n2nc(C#Cc3ccc4c(c3)ncn4C3CC3)c3c(N)ncc(C(=O)CC)c32)C1 reported_metric=MRT test_result=2.63

I = C=CC(=O)N1CC[C@H](n2nc(C#Cc3ccc4cn(C5CC5)nc4c3)c3c(N)ncc(C(C)=O)c32)C1
II = C=CC(=O)N1CC[C@H](n2nc(C#Cc3ccc4oc(C5CC5)nc4c3)c3c(N)ncc(C(C)=O)c32)C1
Exercise: compare I and II ; which one has the greater MRT? Pick one and reply with its label.
II
(II: 5.5 h, I: 2.38 h)

---

Test system: BaF3 FGFR2-BICC1 V564F cells
Experiment: CellTiter-Glo cell proliferation inhibition, BaF3 FGFR2-BICC1 V564F
Assay type: cell-based
Settings: Mus musculus, 72 h, read-out: BaF3 FGFR2-BICC1 V564F inhibitory activity IC50
pIC50: −log10 of the molar value.
REPORTED_METRIC: pIC50

smiles_str=C=CC(=O)N1CC[C@H](n2nc(C#Cc3cc4ncn(C)c4cc3F)c3c(N)ncc(-c4nccs4)c32)C1 tested_on="BaF3 FGFR2-BICC1 V564F cells" test_result=8.80
smiles_str=C=CC(=O)N1CC[C@H](n2nc(C#Cc3cc4ncn(C5CC5)c4cc3F)c3c(N)ncc(C(=O)C4CC4)c32)C1 tested_on="BaF3 FGFR2-BICC1 V564F cells" test_result=9.40

I = C=CC(=O)N1CC[C@H](n2nc(C#Cc3cc4ncn(C5CC5)c4cc3F)c3c(N)ncc(C(=O)C(C)C)c32)C1
II = C=CC(=O)N1CC[C@H](n2nc(C#Cc3cc4ncn(C5CC5)c4cc3Cl)c3c(N)ncc(C(C)=O)c32)C1
Dear colleague, could you let me know whether I or II has the lower recorded pIC50? Thanks. Pick one and reply with its label.
I
(I: 8.68, II: 9.10)

A = C=CC(=O)N1CC[C@H](n2nc(C#Cc3cc4ncn(C5CC5)c4cc3F)c3c(N)ncc(-c4nccs4)c32)C1
B = C=CC(=O)N1CC[C@H](n2nc(C#Cc3ccc4c(c3)ncn4C)c3c(N)ncc(C(=O)C4CC4)c32)C1
C = C=CC(=O)N1CC[C@H](n2nc(C#Cc3ccc4cn(C)nc4c3)c3c(N)ncc(C(C)=O)c32)C1
List by increasing pIC50. Answer format: the labels, ordered as requested.
A, B, C
(A: 8.54, B: 8.85, C: 9.30)

P = C=CC(=O)N1CC[C@H](n2nc(C#Cc3cc4ncn(C5CC5)c4cc3Cl)c3c(N)ncc(C(=O)C(C)C)c32)C1
Q = C=CC(=O)N1CC[C@H](n2nc(C#Cc3ccn4ccnc4c3)c3c(N)ncc(C(=O)C4CC4)c32)C1
Dear colleague, could you let me know whether P or Q has the lower recorded pIC50? Thanks. Pick one and reply with its label.
Q
(Q: 8.96, P: 9.30)

---

Tested on: BaF3 FGFR2-BICC1 V564F cells
Assay: CellTiter-Glo cell proliferation inhibition, BaF3 FGFR2-BICC1 V564F
Type: cell-based
Details: Mus musculus, 72 h, read-out: BaF3 FGFR2-BICC1 V564F inhibitory activity IC50
REPORTED_METRIC: IC50 (nM)

1 = C=CC(=O)N1CC[C@H](n2nc(C#Cc3ccc4cn(C)nc4c3)c3c(N)ncc(C(=O)CC)c32)C1
2 = C=CC(=O)N1CC[C@H](n2nc(C#Cc3cc4nc(C)n(C5CC5)c4cc3F)c3c(N)ncc(C(C)=O)c32)C1
3 = C=CC(=O)N1CC[C@H](n2nc(C#Cc3c(F)cc4c(ncn4C)c3F)c3c(N)ncc(C(C)=O)c32)C1
Highest IC50 first, then in falling order down to the smallest. Answer format: the labels, ordered as requested.
2, 3, 1
(2: 2.2 nM, 3: 1.4 nM, 1: 0.7 nM)

1 = C=CC(=O)N1CC[C@H](n2nc(C#Cc3cc4nc(C)n(C5CC5)c4cc3Cl)c3c(N)ncc(C(C)=O)c32)C1
2 = C=CC(=O)N1CC[C@H](n2nc(C#Cc3ccc4oc(C5CC5)nc4c3)c3c(N)ncnc32)C1 [B, reference compound]
Dear colleague, could you let me know whether 1 or 2 has the lower recorded IC50? Thanks. Pick one and reply with its label.
1
(1: 2.2 nM, 2: 11.5 nM)

---

Biological target: UniProt:P11362
Sequence (P11362 478-767): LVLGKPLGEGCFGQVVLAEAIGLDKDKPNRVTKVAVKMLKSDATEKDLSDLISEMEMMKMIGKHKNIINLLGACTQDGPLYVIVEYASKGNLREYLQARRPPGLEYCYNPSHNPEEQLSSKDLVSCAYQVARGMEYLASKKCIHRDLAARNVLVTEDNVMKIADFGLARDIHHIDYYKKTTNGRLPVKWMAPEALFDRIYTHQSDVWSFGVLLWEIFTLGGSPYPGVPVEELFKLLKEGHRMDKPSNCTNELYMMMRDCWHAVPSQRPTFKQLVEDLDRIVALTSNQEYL
REPORTED_METRIC: IC50 (nM)

Examples with their reported IC50 follow.
compound="C=CC(=O)N1CC[C@H](n2nc(C#Cc3cc4ncn(CC)c4cc3F)c3c(N)ncc(C(=O)C4CC4)c32)C1 [Example 61]" reported_metric=IC50 test_result=2.2
compound="C=CC(=O)N1CC[C@H](n2nc(C#Cc3cc4ncn(CC)c4cc3F)c3c(N)ncc(C(C)=O)c32)C1 [Example 24]" reported_metric=IC50 test_result=3.6

a = C=CC(=O)N1CC[C@H](n2nc(C#Cc3ccc4cn(C)nc4c3)c3c(N)ncc(C(=O)C4CC4)c32)C1 [Example 84]
b = C=CC(=O)N1CC[C@H](n2nc(C#Cc3ccc4c(c3)ncn4C3CC3)c3c(N)ncc(C(=O)C4CC4)c32)C1 [Example 38]
Dear colleague, could you let me know whether a or b has the lower recorded IC50? Thanks. Pick one and reply with its label.
a
(a: 1 nM, b: 2.8 nM)

---

Target: FGFR2 V564F (Homo sapiens (Human), UniProt P21802, V564F)
Sequence (P21802 481-770 V564F): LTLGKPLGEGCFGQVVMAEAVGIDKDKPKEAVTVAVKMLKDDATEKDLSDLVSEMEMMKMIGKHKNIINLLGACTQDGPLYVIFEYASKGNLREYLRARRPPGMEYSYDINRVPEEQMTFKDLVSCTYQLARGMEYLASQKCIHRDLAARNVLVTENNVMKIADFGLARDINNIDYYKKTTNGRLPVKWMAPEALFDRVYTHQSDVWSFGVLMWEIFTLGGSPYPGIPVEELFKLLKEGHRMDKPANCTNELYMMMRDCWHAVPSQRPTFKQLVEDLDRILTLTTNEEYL
Assay: TR-FRET kinase inhibition assay, FGFR2 V564F
Conditions: ATP Km concentration (20 μM)
REPORTED_METRIC: IC50 (nM)

compound="C=CC(=O)N1CC[C@H](n2nc(C#Cc3ccc4c(c3)ncn4C)c3c(N)ncc(C(=O)CC)c32)C1 [Example 64]" reported_metric=IC50 display_unit=nM test_result=0.6
compound="C=CC(=O)N1CC[C@H](n2nc(C#Cc3cc4ncn(C)c4cc3Cl)c3c(N)ncc(C(C)=O)c32)C1 [Example 67]" reported_metric=IC50 display_unit=nM test_result=1.6
compound="C=CC(=O)N1CC[C@H](n2nc(C#Cc3c(F)cc4c(ncn4C)c3F)c3c(N)ncc(-c4cscn4)c32)C1 [Example 29]" reported_metric=IC50 display_unit=nM test_result=3.6
compound="C=CC(=O)N1CC[C@H](n2nc(C#Cc3cc4ncn(C5CC5)c4cc3Cl)c3c(N)ncc(C(C)=O)c32)C1 [Example 44]" reported_metric=IC50 display_unit=nM test_result=0.4
compound="C=CC(=O)N1CC[C@H](n2nc(C#Cc3ccc4c(c3)ncn4C3CC3)c3c(N)ncc(C(=O)C4CC4)c32)C1 [Example 38]" reported_metric=IC50 display_unit=nM test_result=1

I = C=CC(=O)N1CC[C@H](n2nc(C#Cc3cc4ncn(CC)c4cc3F)c3c(N)ncc(-c4nccs4)c32)C1 [Example 22]
II = C=CC(=O)N1CC[C@H](n2nc(C#Cc3ccc4oc(C5CC5)nc4c3)c3c(N)ncnc32)C1 [B, reference compound]
Exercise: compare I and II ; which one has the greater IC50? Pick one and reply with its label.
II
(II: 18.4 nM, I: 0.8 nM)

1 = C=CC(=O)N1CC[C@H](n2nc(C#Cc3ccc4oc(C5CC5)nc4c3)c3c(N)ncc(C(C)=O)c32)C1 [Example 70]
2 = C=CC(=O)N1CC[C@H](n2nc(C#Cc3ccc4c(c3)ncn4C3CC3)c3c(N)ncc(C(=O)CC)c32)C1 [Example 39]
3 = C=CC(=O)N1CC[C@H](n2nc(C#Cc3ccc4ccnn4c3)c3c(N)ncc(C(C)=O)c32)C1 [Example 71]
Descending sort on IC50 required. Answer format: the labels, ordered as requested.
3, 1, 2

I = C=CC(=O)N1CC[C@H](n2nc(C#Cc3ccc4c(c3)ncn4C3CC3)c3c(N)ncc(C(C)=O)c32)C1 [Example 37]
II = C=CC(=O)N1CC[C@H](n2nc(C#Cc3cc4ncn(C5CC5)c4cc3F)c3c(N)ncc(C4CC4)c32)C1 [Example 52]
Dear colleague, could you let me know whether I or II has the lower recorded IC50? Thanks. Pick one and reply with its label.
I
(I: 0.5 nM, II: 1.8 nM)

a = C=CC(=O)N1CC[C@H](n2nc(C#Cc3ccc4c(c3)ncn4C)c3c(N)ncc(C(=O)C(C)C)c32)C1 [Example 66]
b = C=CC(=O)N1CC[C@H](n2nc(C#Cc3cc4ncn(C5CC5)c4cc3F)c3c(N)ncc(-c4nccs4)c32)C1 [Example 34]
Exercise: compare a and b ; which one has the greater IC50? Pick one and reply with its label.
b
